Values from patent US20230233569A1

tested_system: KRAS G13C (Homo sapiens, UniProt P01116+P62937, G13C)
Sequence (P01116 1-169 isoform P01116-2 G13C): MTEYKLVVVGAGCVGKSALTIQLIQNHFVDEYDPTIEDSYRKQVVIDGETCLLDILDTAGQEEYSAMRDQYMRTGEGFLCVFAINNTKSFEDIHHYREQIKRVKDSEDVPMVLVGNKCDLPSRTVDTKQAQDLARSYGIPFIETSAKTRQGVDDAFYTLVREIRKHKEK
Sequence (P62937 whole entry): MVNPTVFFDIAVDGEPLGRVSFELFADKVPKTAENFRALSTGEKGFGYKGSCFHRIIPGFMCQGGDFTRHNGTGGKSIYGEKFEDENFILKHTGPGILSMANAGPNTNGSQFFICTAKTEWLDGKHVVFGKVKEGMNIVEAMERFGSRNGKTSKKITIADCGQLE
method: Disruption of BRAF RBD interaction with Ras (FRET / MOA assay, with Cyclophilin A)
Format: biochemical
condition_description: KRAS G13C; read-out: KRAS G13C FRET data IC50
pIC50: −log10 of the molar value.
assay_metric: pIC50

// field: pIC50; key: C=CS(=O)(=O)N1CC[C@H](C(=O)N(C)[C@H](C(=O)N[C@H]2Cc3cc(O)cc(c3)-c3ccc4c(c3)c(c(-c3cccnc3COC)n4CC)CC(C)(C)COC(=O)[C@@H]3CCCN(N3)C2=O)C(C)C)C1 [Example A069] ; value = 7.00 to 8.00

# pIC50 of C=CC(=O)N1CC[C@H](C(=O)N(C)[C@H](C(=O)N[C@H]2Cc3cc(O)cc(c3)-c3ccc4c(c3)c(c(-c3cccnc3COC)n4CC)CC(C)(C)COC(=O)[C@@H]3CCCN(N3)C2=O)C2CCCC2)C1 [Example A055] = 6.00 to 7.00

// C=CC(=O)N1CC[C@@H](N(C)C(=O)N(C)[C@H](C(=O)N[C@H]2Cc3nc(cs3)-c3ccc4c(c3)c(c(-c3cccnc3[C@H](C)OC)n4CC)CC(C)(C)COC(=O)[C@@H]3CCCN(N3)C2=O)C(C)C)C1 [Example A349] : pIC50 value = 6.00 to 7.00

compound CCn1c(-c2ccccc2CCOC)c2c3cc(ccc31)-c1cc(O)cc(c1)C[C@H](NC(=O)[C@H](C(C)C)N(C)C(=O)C1CCN(C(=O)/C=C/CN(C)C)CC1)C(=O)N1CCC[C@H](N1)C(=O)OCC(C)(C)C2 [Example A019] , pIC50 observed: 5.00 to 6.00

Looking up C=CC(=O)N1CC[C@H](C(=O)N(C)[C@H](C(=O)N[C@H]2Cc3cc(O)cc(c3)-c3ccc4c(c3)c(c(-c3cncc(CN(C)C)c3)n4CC)CC(C)(C)COC(=O)[C@@H]3CCCN(N3)C2=O)C(C)C)C1 [Example A073] , I see its pIC50 listed as 5.00 to 6.00

C=CC(=O)N1CC[C@H](C(=O)N(C)[C@H](C(=O)N[C@H]2Cc3cc(O)cc(c3)-c3ccc4c(c3)c(c(-c3ccc(CN5CC[C@@H](O)C5)cc3)n4CC)CC(C)(C)COC(=O)[C@@H]3CCCN(N3)C2=O)C(C)C)C1 [Examples A001] yielded pIC50 of 5.00 to 6.00

# pIC50 of C=CC(=O)N1CC[C@H](C(=O)N(C)[C@H](C(=O)N[C@H]2Cc3cc(O)cc(c3)-c3ccc4c(c3)c(c(-c3cccnc3CN(C)C)n4CC)CC(C)(C)COC(=O)[C@@H]3CCCN(N3)C2=O)C(C)C)C1 [Example A092] = 5.00 to 6.00

For CCn1c(-c2cccnc2COC)c2c3cc(ccc31)-c1cc(O)cc(c1)C[C@H](NC(=O)[C@H](C(C)C)N(C)C(=O)[C@H]1CCN(C(=O)C#CC(C)(C)N(C)C)C1)C(=O)N1CCC[C@H](N1)C(=O)OCC(C)(C)C2 [Example A162] the compound record lists pIC50 as 6.00 to 7.00

Value of pIC50 reported for the compound C=CC(=O)N1CCN(C(=O)N(C)[C@H](C(=O)N[C@H]2Cc3cc(O)cc(c3)-c3ccc4c(c3)c(c(-c3ccccc3CCOC)n4CC)CC(C)(C)COC(=O)[C@@H]3CCCN(N3)C2=O)C(C)C)CC1 [Example A018] is 6.00 to 7.00
